- subject_of_test: T1, Bdf1 bromodomain 2 (GST-tagged, WT) (Saccharomyces cerevisiae (strain ATCC …, UniProt P35817))
- T1 chain: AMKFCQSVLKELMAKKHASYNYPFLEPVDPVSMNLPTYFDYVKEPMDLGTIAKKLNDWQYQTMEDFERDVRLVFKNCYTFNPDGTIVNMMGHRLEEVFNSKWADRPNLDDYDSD
- assay_protocol: histone peptide array probed with recombinant GST-bromodomain, signal normalised to myc peptide control
Non-standard residues stand in square brackets, D forms with d. No end group written: not given here. Arg(Me2a) = CN(C)C(=N)NCCC[C@H](N)C(=O)O; Lys(Me3) = C[N+](C)(C)CCCC[C@H](N)C(=O)O; Arg(Me2s) = CN=C(NC)NCCC[C@H](N)C(=O)O; pT = C[C@@H](OP(=O)(O)O)[C@H](N)C(=O)O; Lys(Me2) = CN(C)CCCC[C@H](N)C(=O)O; pS = N[C@@H](COP(=O)(O)O)C(=O)O
measured_metric: binding score

Known binding score results, listed for orientation:
{"columns": ["binder", "binding score"],
 "data": [
  ["ARTKQTARKSTGGKAPRKQ (A R T K Q T A R K pS pT G G K A P R K Q)", 0],
  ["SGRGKGGKGLGKGGAKRHR (S G Rme2s G K G G K G L G K G G A K R H R) [H4 1-19]", 0],
  ["ARTKQTARKSTGGKAPRKQ (A R T K Q T A R Kme3 pS T G G K A P R K Q)", 0],
  ["ARTKQTARKSTGGKAPRKQ (A Rme2a T Kac Q T A R Kme2 S T G G K A P R K Q)", 0.00915],
  ["ARTKQTA[Arg(Me2a)][Lys(Me3)][pS][pT]GGKAPRKQ", 0]
]}

P. A[Arg(Me2a)]T[Lys(Me2)]QTA[Arg(Me2s)][Lys(Me3)]STGGKAPRKQ
Q. ARTKQTARKSTGGKAPRKQ (A Rme2s T Kme2 Q T A Rme2a Kme3 S T G G K A P R K Q)
**Q:** For the pair P and Q , which entry has the numerically smaller recorded binding score? Selection: enter the item's label.
**A:** P

I. ARTKQTARKSTGGKAPRKQ (A R T K Q T A R Kme3 S pT G G K A P R K Q)
II. ARTKQTARKSTGGKAPRKQ (A R T K Q T A R Kme2 S T G G Kac A P R K Q)
**Q:** For the pair I and II , which entry has the numerically smaller recorded binding score? Selection: enter the item's label.
**A:** I
(I: 0, II: 0.104)

I. PRKQLATKAA[Arg(Me2s)][Lys(Me2)][pS]APATGG [H3 16-35]
II. ARTKQTARKSTGGKAPRKQ (A R T Kme2 Q T A Rme2a Kme2 S T G G K A P R K Q)
**Q:** Exercise: compare I and II ; which one has the greater binding score? Selection: enter the item's label.
**A:** II
(II: 0.000885, I: 0)

1. A[Arg(Me2s)]TKQTARKSTGGKAPRKQ
2. SGRGKQGGK(Ac)ARAKAKSRSS [H2a 1-19]
**Q:** Exercise: compare 1 and 2 ; which one has the greater binding score? Selection: enter the item's label.
**A:** 2
(2: 0.00797, 1: 0)

Reference for the values: paper PMC5261807
